Values compiled from the Immune Epitope Database (IEDB).

assayed_system: HLA-B*45:06
protocol_text: IEDB peptide-MHC binding, purified MHC/competitive/fluorescence; filed as Kd, often an IC50 or EC50 that approximates it; bounds were set here for any values at or beyond the usual limits of such assays
condition_context: source organism: Homo sapiens
pKd: −log10 of the molar value.
recorded_endpoint: pKd

Entry KGPPAALTL , pKd reported as ≤ 5.30

###

assayed_system: HLA-A*11:01
protocol_text: IEDB peptide-MHC binding, purified MHC/competitive/fluorescence; filed as Kd, often an IC50 or EC50 that approximates it; bounds were set here for any values at or beyond the usual limits of such assays
condition_context: source organism: Shigella flexneri 5 str. 8401
recorded_endpoint: Kd

Entry FGALFMWLL , Kd reported as ≥ 5 µM

###

assayed_system: HLA-A*01:01
protocol_text: IEDB peptide-MHC binding, purified MHC/competitive/radioactivity; filed as Kd, often an IC50 or EC50 that approximates it; bounds were set here for any values at or beyond the usual limits of such assays
condition_context: source organism: Lassa virus GA391
pKd: −log10 of the molar value.
recorded_endpoint: pKd

Entry VFRTSTPKVV , pKd reported as ≤ 4.15

###

assayed_system: HLA-B*35:01
protocol_text: IEDB peptide-MHC binding, purified MHC/competitive/fluorescence; bounds were set here for any values at or beyond the usual limits of such assays
condition_context: source organism: Homo sapiens
pIC50: −log10 of the molar value.
recorded_endpoint: pIC50

With HLA-B*35:01 as the test system, ILNRETLLDFV showed pIC50 of ≤ 4.70

###

assayed_system: HLA-C*05:01
protocol_text: IEDB peptide-MHC binding, purified MHC/direct/fluorescence; filed as Kd, often an IC50 or EC50 that approximates it; bounds were set here for any values at or beyond the usual limits of such assays
condition_context: source organism: human gammaherpesvirus 4
pKd: −log10 of the molar value.
recorded_endpoint: pKd

Entry FFNVEIPEF , pKd reported as ≤ 4.70

###

assayed_system: HLA-A*24:02
protocol_text: IEDB peptide-MHC binding, purified MHC/competitive/radioactivity; filed as Kd, often an IC50 or EC50 that approximates it; bounds were set here for any values at or beyond the usual limits of such assays
condition_context: source organism: Mammarenavirus guanaritoense
recorded_endpoint: pKd
Bear in mind: pKd is minus log10 of a mol/L concentration; give just that figure.

Entry NFGTFYEHI , pKd reported as 5.71

###

assayed_system: HLA-A*68:02
protocol_text: IEDB peptide-MHC binding, purified MHC/direct/fluorescence; filed as Kd, often an IC50 or EC50 that approximates it; bounds were set here for any values at or beyond the usual limits of such assays
condition_context: source organism: Mycobacterium tuberculosis
pKd: −log10 of the molar value.
recorded_endpoint: pKd

With HLA-A*68:02 as the test system, KVMVICYAY showed pKd of ≤ 4.70

###

assayed_system: HLA-A*02:12
protocol_text: IEDB peptide-MHC binding, purified MHC/competitive/fluorescence; filed as Kd, often an IC50 or EC50 that approximates it; bounds were set here for any values at or beyond the usual limits of such assays
condition_context: source organism: Pasteurella multocida subsp. multocida str. Pm70
recorded_endpoint: Kd

Entry LMAEDLANV , Kd reported as ≤ 0.1 nM

###

assayed_system: HLA-A*03:01
protocol_text: IEDB peptide-MHC binding, purified MHC/competitive/fluorescence; filed as Kd, often an IC50 or EC50 that approximates it; bounds were set here for any values at or beyond the usual limits of such assays
condition_context: source organism: Yersinia pestis Nepal516
recorded_endpoint: Kd (nM)
A number alone suffices; assume nM.

polymer_sequence | Kd [nM]
YSSPHLLRY | 258

Entry RLLHRTTRK , Kd reported as 13.3

###

Below, each of the sequences is paired with its reported pKd value.
assayed_system: HLA-A*26:01
protocol_text: IEDB peptide-MHC binding, purified MHC/competitive/radioactivity; filed as Kd, often an IC50 or EC50 that approximates it; bounds were set here for any values at or beyond the usual limits of such assays
condition_context: source organism: Mammarenavirus machupoense
pKd: −log10 of the molar value.

polymer_sequence | recorded_endpoint | assay_result
AYSKSLKELV | pKd | ≤ 4.16
WIEFTNFKV | pKd | ≤ 4.11

// switching to the query sequence
Entry AESLVGFLFY , pKd reported as ≤ 4.16

###

assayed_system: HLA-B*39:01
protocol_text: IEDB peptide-MHC binding, purified MHC/competitive/fluorescence; filed as Kd, often an IC50 or EC50 that approximates it; bounds were set here for any values at or beyond the usual limits of such assays
condition_context: source organism: Reston ebolavirus
recorded_endpoint: Kd

With HLA-B*39:01 as the test system, TTDDSTSYY showed Kd of ≥ 20 µM

###

assayed_system: HLA-A*26:01
protocol_text: IEDB peptide-MHC binding, purified MHC/competitive/fluorescence; filed as Kd, often an IC50 or EC50 that approximates it; bounds were set here for any values at or beyond the usual limits of such assays
condition_context: source organism: Shigella flexneri 5 str. 8401
recorded_endpoint: Kd

With HLA-A*26:01 as the test system, FGALFMWLL showed Kd of ≥ 20 µM

###

assayed_system: HLA-B*46:01
protocol_text: IEDB peptide-MHC binding, purified MHC/competitive/fluorescence; filed as Kd, often an IC50 or EC50 that approximates it; bounds were set here for any values at or beyond the usual limits of such assays
condition_context: source organism: Bacillus cereus ATCC 4342
recorded_endpoint: Kd

Entry GLFWGGIWY , Kd reported as ≥ 20 µM

###

assayed_system: HLA-B*08:01
protocol_text: IEDB peptide-MHC binding, purified MHC/competitive/fluorescence; filed as Kd, often an IC50 or EC50 that approximates it; bounds were set here for any values at or beyond the usual limits of such assays
condition_context: source organism: Escherichia coli O157:H7 str. EDL933
recorded_endpoint: Kd (µM)
A number alone suffices; assume µM.

Entry FIVEHINAM , Kd reported as 0.91

###

assayed_system: HLA-A*69:01
protocol_text: IEDB peptide-MHC binding, purified MHC/direct/fluorescence; filed as Kd, often an IC50 or EC50 that approximates it; bounds were set here for any values at or beyond the usual limits of such assays
condition_context: source organism: dengue virus type 4
pKd: −log10 of the molar value.
recorded_endpoint: pKd

Entry IMAVGLVSL , pKd reported as ≤ 4.70

###

assayed_system: HLA-B*51:01
protocol_text: IEDB peptide-MHC binding, purified MHC/direct/fluorescence; filed as Kd, often an IC50 or EC50 that approximates it; bounds were set here for any values at or beyond the usual limits of such assays
condition_context: source organism: Vibrio cholerae O139
recorded_endpoint: Kd

Entry EKDSNHNVL , Kd reported as ≥ 20 µM

###

assayed_system: HLA-A*26:01
protocol_text: IEDB peptide-MHC binding, purified MHC/competitive/radioactivity; filed as Kd, often an IC50 or EC50 that approximates it; bounds were set here for any values at or beyond the usual limits of such assays
condition_context: source organism: Dengue virus 1 Nauru/West Pac/1974
recorded_endpoint: Kd (µM)
A number alone suffices; assume µM.

Entry STVSQLAKRF , Kd reported as 3.59

###

assayed_system: HLA-A*02:19
protocol_text: IEDB peptide-MHC binding, purified MHC/competitive/fluorescence; filed as Kd, often an IC50 or EC50 that approximates it; bounds were set here for any values at or beyond the usual limits of such assays
condition_context: source organism: Giardia lamblia ATCC 50803
pKd: −log10 of the molar value.
recorded_endpoint: pKd

Entry AILAGEHKC , pKd reported as ≤ 4.70

Entry ISKANWMTY , pKd reported as ≤ 4.70

Entry IANTTDHFF , pKd reported as ≤ 4.70

###

assayed_system: HLA-B*07:02
protocol_text: IEDB peptide-MHC binding, purified MHC/competitive/fluorescence; bounds were set here for any values at or beyond the usual limits of such assays
condition_context: source organism: Zaire ebolavirus
pIC50: −log10 of the molar value.
recorded_endpoint: pIC50

polymer_sequence | assay_result
TPSATTAAG | ≤ 3.84
TGFGTNETE | ≤ 3.65
TLRKERLAK | ≤ 3.92

// switching to the query sequence
Entry TSPRMLTPI , pIC50 reported as ≤ 3.59

###

assayed_system: HLA-A*03:01
protocol_text: IEDB peptide-MHC binding, purified MHC/competitive/radioactivity; filed as Kd, often an IC50 or EC50 that approximates it; bounds were set here for any values at or beyond the usual limits of such assays
condition_context: source organism: Lassa virus Josiah
Below, each of the sequences is paired with its reported Kd value.

polymer_sequence | Kd
TCQGSDDIRK | ≥ 70 µM

// switching to the query sequence
With HLA-A*03:01 as the test system, FCKSCWFENK showed Kd of ≥ 20 µM

###

assayed_system: HLA-B*07:02
protocol_text: IEDB peptide-MHC binding, purified MHC/competitive/radioactivity; filed as Kd, often an IC50 or EC50 that approximates it; bounds were set here for any values at or beyond the usual limits of such assays
condition_context: source organism: Hepatitis B virus subtype adw2
recorded_endpoint: Kd

Entry STLPETTVVRR , Kd reported as ≥ 35 µM
